Values compiled from PubChem BioAssay AID1159580.

# assay: chemical genetic growth profiling, strain panel (AID 1159580);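 further: tested at 20 µM; growth read once vehicle control cultures reached saturation at 30 °C; 1 = growth at the plate median or of vehicle wells; lower values mean less growth of the strain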
# test context: S. cerevisiae deletion strains, growth OD, locus YHR082C, strain KSP1, hits give low values
The whole screen tested about 5,500 compounds, of which about 2,000 (36%) were called active. About 18% were inconclusive and are not listed. Some of the results follow.
observation type: normalized growth
# respond with the number and nothing more

Field: example entries. Status: answers known.
>  <molecule>
C#CCSC1=NNC(c2ccccn2)S1 (stereo not drawn)

>  <normalized growth>
0.21

$$$$
>  <molecule>
O=C(CSC1=NNC(c2ccccn2)S1)Nc1ccccc1 (stereo not drawn)

>  <normalized growth>
1.27

$$$$

Consider O=C1c2cccc3c(Sc4ccccc4)ccc(c23)C(=O)N1NCCO . Its measured normalized growth is 0.8
